molecular target: cGAS/dsDNA complex (Mus musculus, UniProt Q8C6L5); construct: full-length (for high-throughput screening) and residues 147–507 (for structural study) of cGAS; His6-SUMO (N, cleaved yes); made in house; host or cells: E. coli BL21(DE3) RIL; test: Isothermal titration calorimetry, compound titrated into cGAS/dsDNA complex; format: binding; details: cGAS/dsDNA + 1 mM GTP
Sequence (Q8C6L5 147-507, one chain of several): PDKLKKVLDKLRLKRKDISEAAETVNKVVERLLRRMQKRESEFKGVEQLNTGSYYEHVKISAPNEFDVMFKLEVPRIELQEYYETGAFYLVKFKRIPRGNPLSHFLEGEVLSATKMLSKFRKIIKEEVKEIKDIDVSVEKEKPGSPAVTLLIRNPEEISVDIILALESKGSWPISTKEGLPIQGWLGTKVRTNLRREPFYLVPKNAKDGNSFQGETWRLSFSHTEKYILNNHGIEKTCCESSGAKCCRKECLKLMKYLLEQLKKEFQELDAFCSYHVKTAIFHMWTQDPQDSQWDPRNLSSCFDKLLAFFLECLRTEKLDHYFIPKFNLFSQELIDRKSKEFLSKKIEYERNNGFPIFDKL
assay_endpoint: Kd (nM)
# number only, unit nM dropped from output

Ask: I am curious: what Kd value has been reported for Cc1nn(-c2nc3ccccc3[nH]2)c(O)c1C1OC(=O)c2ccccc21 (stereo not shown) ?
Reply: 298

====

target: mouse cGAS (Mus musculus); construct: recombinant full-length mouse cGAS in reaction buffer; His6-SUMO (N, cleaved yes); made in house; host or cells: E. coli BL21(DE3) RIL; assay: RapidFire mass spectrometry (RF-MS) cGAS enzymatic assay, cGAMP product formation; assay type: biochemical; conditions: Supplementary Table 2; batch of compounds stored in the screening library; read-out: IC50
Sequence (Q8C6L5 whole entry): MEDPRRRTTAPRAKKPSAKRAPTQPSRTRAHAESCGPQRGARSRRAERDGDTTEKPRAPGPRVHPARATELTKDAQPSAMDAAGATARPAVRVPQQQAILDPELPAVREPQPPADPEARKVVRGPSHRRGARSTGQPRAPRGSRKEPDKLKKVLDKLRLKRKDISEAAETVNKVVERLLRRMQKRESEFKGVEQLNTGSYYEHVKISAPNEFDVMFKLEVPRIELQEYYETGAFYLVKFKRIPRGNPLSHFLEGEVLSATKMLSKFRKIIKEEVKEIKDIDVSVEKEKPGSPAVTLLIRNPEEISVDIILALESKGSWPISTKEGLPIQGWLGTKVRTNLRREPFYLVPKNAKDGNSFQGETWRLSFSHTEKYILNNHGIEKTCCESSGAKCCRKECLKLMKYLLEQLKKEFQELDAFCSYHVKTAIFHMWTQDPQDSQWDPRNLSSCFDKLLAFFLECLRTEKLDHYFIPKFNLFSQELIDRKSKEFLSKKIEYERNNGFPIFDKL
assay_endpoint: IC50 (µM)

Example cases with answers are listed next.
O=C(O)c1cc(O)c2c(c1)[C@@H]([C@H]1c3cc(C(=O)O)cc(O)c3C(=O)c3c(O[C@H]4O[C@H](CO)[C@@H](O)[C@H](O)[C@H]4O)cccc31)c1cccc(O[C@H]3O[C@H](CO)[C@@H](O)[C@H](O)[C@H]3O)c1C2=O : 8.76
COc1cccc2c1C(=O)c1c(O)c3c(c(O)c1C2=O)C[C@@](O)(C(C)=O)C[C@@H]3O[C@H]1C[C@H](N)[C@H](O)[C@H](C)O1 : 1.81

(A) CCC1=NN2C(=N)/C(=C/c3cccs3)C(=O)N=C2S1
(B) O=C1NC(=S)SC1=Cc1ccccc1F
Ask: // which entry reports the smaller IC50, A or B ? Answer = label.
Reply: A

====

Here the recorded % intercalation at 30 µM is given for each entry.
system: 45-bp dsDNA; assay: DNA intercalation: acridine orange displacement from dsDNA by fluorescence polarization; format: binding; conditions: Supplementary Table 2; acridine orange displacement compared to mitoxantrone
# number only, unit % dropped from output

Example cases with answers are listed next.
CC(C)c1ccc2oc3nc(N)c(C(=O)O)cc3c(=O)c2c1 : 1.5
O=C(CCl)Nc1nc(-c2c[nH]c3ccccc23)cs1 : -10.1

Ask: I am curious: what % intercalation at 30 µM value has been reported for COc1cccc2c1C(=O)c1c(O)c3c(c(O)c1C2=O)C[C@@](O)(C(=O)CO)C[C@@H]3O[C@H]1C[C@H](N)[C@@H](O)[C@H](C)O1 ?
Reply: 96.5

Ask: I am curious: what % intercalation at 30 µM value has been reported for Oc1c(Cl)cc(Cl)c(Cl)c1Cc1c(O)c(Cl)cc(Cl)c1Cl ?
Reply: 69.6

====

test system: 45-bp dsDNA; assay: DNA intercalation: acridine orange displacement from dsDNA by fluorescence polarization; type: binding; details: Supplementary Table 2; compound 30 µM
assay_endpoint: Polarization (mP)

CCN(CC)CCCC(C)Nc1c2ccc(Cl)cc2nc2ccc(OC)cc12 (stereo not drawn) [RU316] : 140
CCC1=NN2C(=N)/C(=C/c3cccs3)C(=O)N=C2S1 [RU169248] : 262
O=C(COc1ccc(Cl)c2ccccc12)Nc1ncccc1O [RU191752] : 276
C[n+]1cc2c3c(ccc2c2ccc4cc5c(cc4c21)OCO5)OCO3 [RU871] : 56
O=[N+]([O-])c1ccc(O)c([N+](=O)[O-])c1 [RU803] : 260
COc1cccc2c1C(=O)c1c(O)c3c(c(O)c1C2=O)C[C@@](O)(C(C)=O)C[C@@H]3OC1CC(N)C(O)C(C)O1 (stereo partly drawn) [RU24146] : 55
CC[n+]1c(-c2ccccc2)c2cc(N)ccc2c2ccc(N)cc21 [RU662] : 42
N=C(N)NN=C1C=CC(=NNC(N)=S)C=C1 [RU187428] : 164
CC[C@@]1(O)C[C@H](O[C@H]2C[C@H](N(C)C)[C@H](O)[C@H](C)O2)c2c(cc3c(c2O)C(=O)c2c(O)cccc2C3=O)[C@H]1C(=O)OC [RU891] : 65
